Numbers sourced from PubChem BioAssay AID1963865.

System: KRAS PDC multicell spheroid viability
assay_info: Anticancer human tumor 825966-067-R-J1-PDC patient-derived colon carcinoma cell line growth inhibition [KRAS2]
study_conditions: second compound 0.0316 µM; first compound 0.000316 µM; stronger effect = lower value
outcome_measure: viability, T/C (%)

compound="CC(C)n1nc(-c2ccc3oc(N)nc3c2)c2c(N)ncnc21 + C=CC(=O)N1CCN(c2nc(OCC3CCCN3C)nc3c2CCN(c2cccc4cccc(C)c24)C3)CC1CC#N" obs_value=111
compound="CN(C)C/C=C/C(=O)Nc1cc2c(Nc3ccc(F)c(Cl)c3)ncnc2cc1O[C@H]1CCOC1 + C=CC(=O)N1CCN(c2nc(OCC3CCCN3C)nc3c2CCN(c2cccc4cccc(C)c24)C3)CC1CC#N" obs_value=92
compound="CC(=O)Nc1cccc(-n2c(=O)n(C3CC3)c(=O)c3c(Nc4ccc(I)cc4F)n(C)c(=O)c(C)c32)c1 + C=CC(=O)N1CCN(c2nc(OCC3CCCN3C)nc3c2CCN(c2cccc4cccc(C)c24)C3)CC1CC#N" obs_value=94.8
compound="Cn1ncnc1[C@H]1c2n[nH]c(=O)c3cc(F)cc(c23)N[C@@H]1c1ccc(F)cc1 + C=CC(=O)N1CCN(c2nc(OCC3CCCN3C)nc3c2CCN(c2cccc4cccc(C)c24)C3)CC1CC#N" obs_value=108

----------
System: KRAS PDC multicell spheroid viability
assay_info: Anticancer human tumor 825966-067-R-J1-PDC cell line growth inhibition [KRAS2];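 note: spheroids exposed to compounds for 7 days; 100% = DMSO vehicle control viability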
study_conditions: second compound 0.1 µM; first compound 0.0316 µM; stronger effect = lower value
outcome_measure: viability, T/C (%)

compound="Cn1ncnc1[C@H]1c2n[nH]c(=O)c3cc(F)cc(c23)N[C@@H]1c1ccc(F)cc1 + C=CC(=O)N1CCN(c2nc(OCC3CCCN3C)nc3c2CCN(c2cccc4cccc(C)c24)C3)CC1CC#N" target_system="KRAS PDC multicell spheroid viability" obs_value=81.5
compound="CC1COCCN1c1cc(-c2ccnn2C)c2ccnc(-c3ccn[nH]3)c2n1 (configuration not stated) + CC1OCC2(CCN(c3cnc(Sc4ccnc(N)c4Cl)c(N)n3)CC2)C1N" target_system="KRAS PDC multicell spheroid viability" obs_value=120
compound="COc1cc(Nc2ncc3c(n2)-c2ccc(Cl)cc2C(c2c(F)cccc2OC)=NC3)ccc1C(=O)O + COc1cc2nc(C)nc(NC(C)c3cc(N)cc(C(F)(F)F)c3)c2cc1OC1CCOC1" target_system="KRAS PDC multicell spheroid viability" obs_value=124
compound="CC(C)NCC(C(=O)N1CCN(c2ncnc3c2C(C)CC3O)CC1)c1ccc(Cl)cc1 (configuration not stated) + CC1OCC2(CCN(c3cnc(Sc4ccnc(N)c4Cl)c(N)n3)CC2)C1N" target_system="KRAS PDC multicell spheroid viability" obs_value=73.2
compound="CC1COCCN1c1cc(-c2ccnn2C)c2ccnc(-c3ccn[nH]3)c2n1 (configuration not stated) + C=CC(=O)N1CCN(c2nc(OCC3CCCN3C)nc3c2CCN(c2cccc4cccc(C)c24)C3)CC1CC#N" target_system="KRAS PDC multicell spheroid viability" obs_value=114
compound="COC(=O)c1ccc2c(C(=Nc3ccc(N(C)C(=O)CN4CCN(C)CC4)cc3)c3ccccc3)c(O)[nH]c2c1 + C=CC(=O)N1CCN(c2nc(OCC3CCCN3C)nc3c2CCN(c2cccc4cccc(C)c24)C3)CC1CC#N" target_system="KRAS PDC multicell spheroid viability" obs_value=107
compound="CN(C)C/C=C/C(=O)Nc1cc2c(Nc3ccc(F)c(Cl)c3)ncnc2cc1O[C@H]1CCOC1 + CC1OCC2(CCN(c3cnc(Sc4ccnc(N)c4Cl)c(N)n3)CC2)C1N" target_system="KRAS PDC multicell spheroid viability" obs_value=91.4
compound="CC(C)n1nc(-c2ccc3oc(N)nc3c2)c2c(N)ncnc21 + COc1cc2nc(C)nc(NC(C)c3cc(N)cc(C(F)(F)F)c3)c2cc1OC1CCOC1" target_system="KRAS PDC multicell spheroid viability" obs_value=79
compound="Cn1ncnc1[C@H]1c2n[nH]c(=O)c3cc(F)cc(c23)N[C@@H]1c1ccc(F)cc1 + COc1cc2nc(C)nc(NC(C)c3cc(N)cc(C(F)(F)F)c3)c2cc1OC1CCOC1" target_system="KRAS PDC multicell spheroid viability" obs_value=83.9
compound="CC(C)n1nc(-c2ccc3oc(N)nc3c2)c2c(N)ncnc21 + C=CC(=O)N1CCN(c2nc(OCC3CCCN3C)nc3c2CCN(c2cccc4cccc(C)c24)C3)CC1CC#N" target_system="KRAS PDC multicell spheroid viability" obs_value=113
compound="O=C(c1cc(Cc2n[nH]c(=O)c3ccccc23)ccc1F)N1CCN(C(=O)C2CC2)CC1 + C=CC(=O)N1CCN(c2nc(OCC3CCCN3C)nc3c2CCN(c2cccc4cccc(C)c24)C3)CC1CC#N" target_system="KRAS PDC multicell spheroid viability" obs_value=98.7
compound="CCN1CCN(Cc2ccc(Nc3ncc(F)c(-c4cc(F)c5nc(C)n(C(C)C)c5c4)n3)nc2)CC1 + C=CC(=O)N1CCN(c2nc(OCC3CCCN3C)nc3c2CCN(c2cccc4cccc(C)c24)C3)CC1CC#N" target_system="KRAS PDC multicell spheroid viability" obs_value=108
